test system: TK-10 renal; assay: NCI-60 one-dose screen, 48 h (100 = growth as untreated, 0 = no growth, -100 = all killed); details: 10 µM unless noted
Compounds without any hit were thinned out: in the full panel of roughly 83,000, 20% have a hit.
readoutLabel: growth (%)

{"structureNotation": "O=C(CCN1C(=O)/C(=C/c2ccc(Cl)cc2)SC1=S)NCCCN1CCOCC1", "units": "%", "readoutValue": 110}
{"structureNotation": "Nc1ccc(S(=O)(=O)O)c2ccc(N=Nc3ccc(N=Nc4ccc(S(=O)(=O)O)cc4)c4ccccc34)c(O)c12", "units": "%", "readoutValue": 98.7}
{"structureNotation": "COc1cccc(Nc2nc(SC)nc(-c3cccc([N+](=O)[O-])c3)c2C#N)c1", "units": "%", "readoutValue": 75.8}
{"structureNotation": "COc1ccccc1NS(=O)(=O)c1ccc2oc(SC(C)C)nc2c1", "units": "%", "readoutValue": 102}
{"structureNotation": "Cc1cc(N[C@@H]2CCC[C@H](Nc3ccnc4cc(Cl)ccc34)C2)nc(N2CCCCCC2)n1", "units": "%", "readoutValue": -67.7}
{"structureNotation": "O=C1/C(=C/c2ccc(OCCCOc3ccc(Cl)cc3)cc2)N=C2SCCCN12", "units": "%", "readoutValue": 72.7}
{"structureNotation": "N#CCCN=Nc1c(O)[nH]c2ccc(F)cc12", "units": "%", "readoutValue": 108}
{"structureNotation": "CCOC(=O)c1sc2nc(-c3cccc(OC)c3)nc(N3CCOCC3)c2c1C", "units": "%", "readoutValue": 98.1}
{"structureNotation": "COCCNc1ccc2c3c(cccc13)C(=O)N(CCN(C)C)C2=O", "units": "%", "readoutValue": 20.5}
{"structureNotation": "COc1ccc2c(c1)C(=O)/C(=C/c1cccnc1)CC2", "units": "%", "readoutValue": 97.7}

----------
test system: U251 CNS; test: NCI-60 one-dose screen, 48 h; conditions: 10 µM unless noted
About 83,000 compounds went through this panel and 20% of them were active in at least one assay; those are over-represented in the sample as a whole. Active and inactive are the calls of the source. How the source made its calls: active means growth percent below 10; inactive means the rest.
Possible outcomes: true (1) (active), false (0) (inactive)

{"molecule": "COc1cc(C)c(C2C(C#N)=C(N)Oc3n[nH]c(-c4cccs4)c32)cc1C(C)C (centres undefined)", "discreteLabel": "false (0)"}
{"molecule": "CCOC(=O)c1sc(Nc2ccc(Cl)cc2)nc1C", "discreteLabel": "false (0)"}
{"molecule": "O=C(NCCN1CCOCC1)Nc1ccc(-c2cc3c(Nc4ccc(Oc5cccc(C(F)(F)F)c5)c(Cl)c4)ncnc3s2)cc1", "discreteLabel": "true (1)"}
{"molecule": "COC(=O)c1ccc(NC(=O)c2ccc(-c3cccc([N+](=O)[O-])c3)o2)cc1", "discreteLabel": "false (0)"}
{"molecule": "NS(=O)(=O)c1ccc(CN=C2NC(=O)S/C2=C\\c2ccc(Br)cc2)cc1", "discreteLabel": "false (0)"}
{"molecule": "COc1ccc2nc(NC(=O)CSc3nnc4n3S(=O)(=O)c3ccccc3N4c3ccccc3)sc2c1", "discreteLabel": "false (0)"}
{"molecule": "O=C1NC(=O)C(c2ccc(Cl)cc2Cl)N1 (centres undefined)", "discreteLabel": "false (0)"}
{"molecule": "CC(=O)O[C@H]1C(=O)[C@@]2(C)[C@H]([C@H](OC(=O)c3ccccc3)[C@]3(O)C[C@H](OC(=O)[C@H](OC(=O)CCC(=O)OC4CCC(S/N=C(N)/N=C(\\N)N(C)C)CC4)[C@@H](NC(=O)c4ccccc4)c4ccccc4)C(C)=C1C3(C)C)[C@]1(OC(C)=O)CO[C@@H]1C[C@@H]2O (some centres undefined)", "discreteLabel": "false (0)"}
{"molecule": "CCCCn1c(-c2ccc(C(=O)O/N=C(\\N)c3ccc4ccccc4c3)cc2)nc(-c2ccccc2)c1-c1ccccc1", "discreteLabel": "false (0)"}
{"molecule": "O=C(CN1C(=O)/C(=C/c2ccc(Cl)cc2)SC1=S)NCCCN1CCOCC1", "discreteLabel": "false (0)"}
{"molecule": "NC(=O)c1cc(I)ccc1NC(=O)/C=C/c1ccccc1Cl", "discreteLabel": "false (0)"}
{"molecule": "COc1ccc2c(c1)C(=O)/C(=C/c1cccnc1)CC2", "discreteLabel": "false (0)"}
{"molecule": "CC(C)n1c(/C=C/[C@@H](O)C[C@@H](O)CC(=O)O)c(-c2ccc(F)cc2)c2ccccc21", "discreteLabel": "false (0)"}
{"molecule": "O=C(Nc1ccc(Cl)cc1)c1cc2cc(F)ccc2cc1O", "discreteLabel": "true (1)"}
{"molecule": "O=C(/C=C/C=C/c1ccc2c(c1)OCO2)N/N=C\\c1ccc(O)cc1O", "discreteLabel": "false (0)"}
{"molecule": "CCOC(=O)C(C)(C#N)C1C=CCCC1 (centres undefined)", "discreteLabel": "false (0)"}
{"molecule": "O=c1oc2c(C(F)(F)F)cccc2cc1-c1csc(Nc2ccc(OCCF)cc2)n1", "discreteLabel": "true (1)"}
{"molecule": "OCCNc1nccc(N2CCN(c3ccnc4cc(Cl)ccc34)CC2)n1", "discreteLabel": "false (0)"}
{"molecule": "COc1ccc(C2C(C#N)=C(N)Oc3n[nH]c(-c4cccs4)c32)cc1I (centres undefined)", "discreteLabel": "false (0)"}
{"molecule": "Fc1ccc(CNc2cccc3[nH]c(C(F)(F)F)nc23)cc1", "discreteLabel": "false (0)"}
{"molecule": "COc1ccc(/C=N/C2=C(C#N)C(c3ccc(N(C)C)cc3)c3ccc4ccccc4c3O2)cc1 (centres undefined)", "discreteLabel": "false (0)"}
{"molecule": "O=C(COc1ccc(-c2nc3cc(Cl)c(Cl)cc3[nH]2)cc1)N=Nc1c(O)[nH]c2ccccc12", "discreteLabel": "true (1)"}
{"molecule": "Cc1ccc2c(C(C[N+](=O)[O-])c3ccccc3F)c(-c3ccccc3)[nH]c2c1 (centres undefined)", "discreteLabel": "false (0)"}
{"molecule": "O=[N+]([O-])c1cnc(N2CCN(CC3CC3)CC2)nc1N1CCN(CC2CC2)CC1", "discreteLabel": "false (0)"}

----------
Item-by-item account of growth
Tested on: SK-MEL-2 melanoma
Assay: NCI-60 one-dose screen, 48 h (100 = growth as untreated, 0 = no growth, -100 = all killed)
Details: 10 µM unless noted
Method: Growth inhibition of the SK-MEL-2 human tumor cell line is measured as a screen for anti-cancer activity. Cells are grown in 96 well plates and exposed to the test compound for 48 hours. Compounds are tested at a single concentration, which is 10^-5 M for most compounds. The reported endpoint is percent growth (GI% or GIPRCNT), where numbers from 0 - 100% represent growth inhibition, and numbers from -100% - 0 represent cell death. For example, a value of 40 represents 60% growth inhibition. […]
This is part of a sample that, as a whole, favours compounds with a hit. Of some 83,000 tested, about 20% had one in any assay. Active and inactive are the calls of the source. How the source made its calls: active means growth percent below 10; inactive means the rest.
readoutLabel: growth

{"compound": "O=C1OC(c2ccccc2)C(O)=C1c1ccccc1 (stereo not drawn)", "readoutValue": "117% (inactive)"}
{"compound": "CC(C)CSc1nc(N)nc2c1ncn2C1OC(CO)C(O)C1O (stereo not drawn)", "readoutValue": "111% (inactive)"}
{"compound": "Cc1cc(C)c2nc3nc(C)cc(C)c3c(N)c2c1", "readoutValue": "30.4% (inactive)"}

----------
test system: EKVX NSCLC; assay: NCI-60 one-dose screen, 48 h (100 = growth as untreated, 0 = no growth, -100 = all killed); details: 10 µM unless noted
Compounds without any hit were thinned out: in the full panel of roughly 83,000, 20% have a hit.

{"structureNotation": "Cc1ccc(O)c(N2C(=NCc3ccco3)NS(=O)(=O)c3cnccc32)c1", "growth (%)": 101}
{"structureNotation": "COc1cc2c(cc1-c1c(C)noc1C)ncc1nc(-c3ccccn3)n([C@H](C)COC(F)F)c12", "growth (%)": 59}
{"structureNotation": "O=C(N=Nc1c(O)[nH]c2ccccc12)c1cc(-c2ccccc2)on1", "growth (%)": 92}

----------
system: U251 CNS; assay: NCI-60 one-dose screen, 48 h; settings: 10 µM unless noted
The panel holds about 83,000 compounds, 20% with a hit somewhere; the sample as a whole holds those more often. Active and inactive are the calls of the source. How the source made its calls: active means growth percent below 10; inactive means the rest.
Possible outcomes: Yes for active, No for inactive

{"compound": "O=[N+]([O-])c1ccc(Nc2nc(NCCN3CCOCC3)ncc2[N+](=O)[O-])cc1", "measuredTarget": "U251 CNS", "discreteLabel": "No"}
{"compound": "O=C1/C(=C/c2ccccc2)SC(=S)N1CCc1ccc(O)cc1", "measuredTarget": "U251 CNS", "discreteLabel": "No"}
{"compound": "CC(C)CSc1nc(N)nc2c1ncn2C1OC(CO)C(O)C1O (stereo not drawn)", "measuredTarget": "U251 CNS", "discreteLabel": "No"}
{"compound": "O=C1/C(=C(/c2ccccc2)N2CCOCC2)Cc2ccccc21", "measuredTarget": "U251 CNS", "discreteLabel": "Yes"}
{"compound": "Nc1n[nH]c2ccc([C@@H]3Nc4ccc5cn[nH]c5c4[C@H]4C5CCC(C5)[C@@H]34)cc12 (stereo partly drawn)", "measuredTarget": "U251 CNS", "discreteLabel": "No"}
{"compound": "O=C1Nc2c(ccc(Cl)c2Cl)/C1=C\\c1cc(C(F)(F)F)cc(C(F)(F)F)c1", "measuredTarget": "U251 CNS", "discreteLabel": "Yes"}
{"compound": "CN(C)[C@@H]1C(=O)C(C(=O)NCc2nc3[nH]cnc(=S)c3[nH]2)=C(O)[C@@]2(O)C(=O)C3=C(O)c4c(O)cccc4[C@@](C)(O)[C@H]3C[C@@H]12", "measuredTarget": "U251 CNS", "discreteLabel": "No"}
{"compound": "COc1ccc(-n2nc(C)c3c(Nc4ccc(NC(=O)Nc5cc(C(F)(F)F)ccc5F)cc4)ncnc32)cc1", "measuredTarget": "U251 CNS", "discreteLabel": "No"}
{"compound": "CSc1ccc(-c2ccccc(=O)c2O)cc1", "measuredTarget": "U251 CNS", "discreteLabel": "Yes"}
{"compound": "Cc1cc(C)nc(SC2=C(Nc3cc(Cl)ccc3O)C(=O)N(Cc3ccccc3)C2=O)n1", "measuredTarget": "U251 CNS", "discreteLabel": "No"}
{"compound": "CSc1ccc(-c2n[nH]nc2-c2cc3ccccc3s2)cc1", "measuredTarget": "U251 CNS", "discreteLabel": "No"}
{"compound": "Cc1cc(Nc2ccc(C)c(Cl)c2)n2nc(C(F)(F)F)nc2n1", "measuredTarget": "U251 CNS", "discreteLabel": "Yes"}
{"compound": "COc1cc2c(cc1-c1c(C)noc1C)ncc1nc(C3CCC(F)(F)CC3)n([C@H](C)COC(F)F)c12", "measuredTarget": "U251 CNS", "discreteLabel": "No"}
{"compound": "Cc1ccc(C2=NN3C(C2)c2cc(Br)ccc2OC32CCN(Cc3ccccc3)CC2)o1 (stereo not drawn)", "measuredTarget": "U251 CNS", "discreteLabel": "No"}
{"compound": "CN(Cc1cc(Cl)cc(Cl)c1O)Cc1cc(Cl)cc(Cl)c1O", "measuredTarget": "U251 CNS", "discreteLabel": "No"}
{"compound": "NC(=NCCCC1(c2ccccc2)CCCC1)Nc1ccc(Cl)cc1", "measuredTarget": "U251 CNS", "discreteLabel": "Yes"}
{"compound": "O=C1/C(=C/c2ccc3c(c2)OCO3)SC(=S)N1CCc1ccc(O)cc1", "measuredTarget": "U251 CNS", "discreteLabel": "No"}
{"compound": "N#CN1CCC[C@H]1C(=O)N1CCc2c(-c3[nH]nc4ncccc34)cccc21", "measuredTarget": "U251 CNS", "discreteLabel": "Yes"}
{"compound": "COc1cc(-c2nc3ccccc3[nH]2)ccc1OCC(=O)N=Nc1c(O)[nH]c2ccc(Cl)cc12", "measuredTarget": "U251 CNS", "discreteLabel": "Yes"}
{"compound": "C=C1C(=O)O[C@H]2[C@H]1CC/C(COC(=O)NCCc1ccc(OC)c(OC)c1)=C\\CC[C@@]1(C)O[C@@H]21", "measuredTarget": "U251 CNS", "discreteLabel": "No"}
{"compound": "NC(=O)c1cc(Cl)ccc1NC(=O)/C=C/c1ccccc1", "measuredTarget": "U251 CNS", "discreteLabel": "No"}
{"compound": "O=C1OCC2=C1C(c1ccncc1)c1cc3c(cc1N2CCO)OCO3 (stereo not drawn)", "measuredTarget": "U251 CNS", "discreteLabel": "No"}
{"compound": "Cc1nn(-c2cc(=O)[nH]c3ccccc23)c(N)c1C#N", "measuredTarget": "U251 CNS", "discreteLabel": "No"}

Data origin: PubChem BioAssay (NCI)
